Molecular target: Voltage-gated potassium channel subunit beta-2 (Rattus norvegicus)
Experiment: enhancers of rat Kvbeta2 NADPH turnover – biochemical, NADPH fluorescence, primary screen (AID 623);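 note: fluorescence intensity change per second fitted from 20 to 320 s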
Settings: Recombinant KvBeta, NADPH fluorescence decrease slope, 10 min; at 10 µM; active compounds read low
Readout label: NADPH fluorescence slope

CS(=O)(=O)NCCSCc1c(F)cccc1Cl = -2.1e-05
CCOC(=O)N1CCC(NC(=O)c2cnn3ccccc23)CC1 = 4.8e-07
COc1ccc(N2CCN(c3oc(COc4ccccc4Cl)nc3C#N)CC2)cc1 = -0.000162
CCOc1ccc(NC(=O)CC2NCCNC2=O)cc1 (stereo unspecified) = -7e-05
CCOc1ccccc1CN(Cc1ccco1)S(=O)(=O)c1ccc(-n2cnnn2)c(OC)c1 = -1.2e-05
CCOc1cc(CN2CCN(C(=O)c3ccco3)CC2)ccc1OC = -1.5e-05
Cc1ccc(-c2cc(C(=O)Nc3cc(C)on3)c3ccccc3n2)c(C)c1 = -4.3e-05
Cc1cccc(-c2nnc(SCC#N)n2-c2cccc(Cl)c2)c1 = -2.1e-05
C=CCn1c(SCC(=O)NCC2CCCO2)nc2scc(-c3ccco3)c2c1=O (stereo unspecified) = -0.000271
Cc1ccccc1-n1c(Cn2c(=O)sc3ccccc32)nnc1SCC(N)=O = -3.8e-05
CC1=C(C(N)=O)C(c2cccnc2)n2nc(SCc3ccccc3Cl)nc2N1 (stereo unspecified) = -5.4e-05
CN(CC(=O)N1CCCc2c1c(=O)oc1ccc(O)cc21)Cc1ccccc1 = -4.5e-05
CCOc1ccc(C2CC(c3cccc(C)c3)n3ncnc3N2)cc1 (stereo unspecified) = 1.7e-06
CSCCC(NC(=O)c1occc1C)C(=O)O (stereo unspecified) = -6.3e-05
CC(C)=CCCC(C)N(C=O)C(C)CCC=C(C)C (stereo unspecified) = -1.6e-06
Cc1cccc(NC(=O)c2ccc3ccccc3n2)n1 = -1.5e-05
Cc1nc(NC2=NCN(CC3CCCO3)CN2)nc2ccccc12 (stereo unspecified) = -8.4e-06
Oc1ccccc1-c1nnc(COc2ccc(Cl)cc2Cl)o1 = -2.9e-05
CCC(C)(C)n1nnnc1C(c1cc2cc(C)ccc2[nH]c1=O)N1CCCC1 (stereo unspecified) = 2.7e-05
CN1CCN(CCCNC(=O)Cn2ncc3c4ccccc4n(C)c3c2=O)CC1 = -1.6e-07
COC(=O)c1ccccc1S(=O)(=O)NC(=O)c1ccccc1 = -3.3e-08
CCn1c(SCc2cccc(C(F)(F)F)c2)nnc1-c1ccco1 = -3.6e-05
Cc1ccc2cc(CN(CCN3CCCC3)C(=O)Nc3ccc(F)cc3)c(=O)[nH]c2c1C = 2.1e-05
CCc1nn2c(=O)cc(CSc3nc4sc5c(c4c(=O)n3C)CCCC5)nc2s1 = 4.1e-05
CC1CCN(CCc2nc3cc(NS(=O)(=O)c4ccc(F)cc4)ccc3n2C)CC1 = -3.1e-05
Cc1ccc(Br)cc1S(=O)(=O)N1CCN(c2ccccc2)CC1 = -1.8e-05
CCOc1ccc(N(CC)C(=O)COc2cc(=O)n(C)c3ccccc23)cc1 = 7.5e-06
CC1CCCCC1NC(=O)CCCc1nc2ccccc2c(=O)[nH]1 (stereo unspecified) = -2.3e-05
CN(C)CCCN1C(=O)c2oc3ccccc3c(=O)c2C1c1cccs1 (stereo unspecified) = 4e-06
CCCn1c(SCC(=O)N2CCN(c3ccccc3)CC2)nc2ccccc2c1=O = 3.4e-07
O=C1CCNc2cc3ccccc3cc21 = -0.000147
Cc1cccc(C2c3c(n(C)c(=O)n(C)c3=O)N=C3c4ccccc4C(=O)C32)c1 (stereo unspecified) = 2.2e-05
Cc1csc(NC(=O)c2ccco2)n1 = -1.3e-06
CC(C)NC(=O)CSCc1ccccc1Cl = -1.3e-05
COc1cccc(C2=NOC(C(=O)N3CCc4ccccc4C3)C2)c1 (stereo unspecified) = -4.1e-05
COc1cc(C2N3CC4(C)CN2CC(C)(C3)C4)ccc1O (stereo unspecified) = -5.2e-07
Cc1cc(C(=O)NCCN2CCCCC2C)n(-c2ccccc2)n1 (stereo unspecified) = -4.7e-05
CCCCn1c(=O)[nH]c(=O)c2c1nc(COc1ccc(C#N)cc1)n2CCC = 6.8e-06
COc1ccccc1N1CC(O)=C(c2nc3ccccc3c(=O)[nH]2)C1=N = -3.6e-05
CCCOC(=O)c1[nH]c2c(c1C)C(=O)CC(c1ccc(OC)c(OC)c1)C2 (stereo unspecified) = 8.6e-06
COc1cccc(-c2nc(CS(=O)CC(=O)NCCCOC(C)C)c(C)o2)c1 (stereo unspecified) = -9.9e-06
COCCNC(=O)c1snc2ccc(Cl)cc12 = 3.8e-05
Cn1c(COc2ccc(Cl)cc2)nnc1SCC(=O)NC1CCCCC1 = -1.7e-05
COc1ccc(NC(=O)N(C2CCCCC2)C2CCN(C(C)C)CC2)c(OC)c1 = 9.2e-06
Cc1[nH]c2ccccc2c1Cc1nnc(SCC(=O)NCc2ccco2)o1 = 1.9e-05
COCCN(CCOC)c1ncnc2c1cnn2-c1ccccc1 = -2.1e-05

====

Test: TLR3 IRF3 reporter activation blockers – cell-based, poly I:C stimulus, luciferase, 10K MLSCN set, primary screen (AID 602277)
Conditions: HEK293-TLR3 RL24 IRF3 luciferase reporter, at 10 µM, active compounds read high
Tag: y if measured inhibition is not below 20%, n if it is.

N#CCc1c(C#N)c(N)nc(N2CCN(S(=O)(=O)c3ccccc3)CC2)c1C#N = y
CCn1nccc1C(=O)Nc1cc(Cl)ccc1Cl = n
COc1ccc(Br)cc1CNC(=O)C1CCCN(S(C)(=O)=O)C1 (configuration not stated) = y
CC1Cc2nc(SCC(=O)Nc3ccc(F)cc3F)n(C)c(=O)c2S1 (configuration not stated) = n
CCOc1ccc(-n2cc(C(=O)N3CCN(C)CC3)c3cc(OC)c(OC)cc3c2=O)cc1 = n
CCSc1ccccc1C(=O)Nc1cccc(OC)c1 = n
O=C(Nc1ccccc1C(=O)N1CCN(c2ccccc2)CC1)c1ccco1 = n
Fc1cccc(NCc2cn3ccccc3n2)c1 = n
COc1cccc(NC(=O)c2ccco2)c1 = n
Cc1cnc(C(=O)Nc2nnc(C(C)C)s2)cn1 = n
COc1ccc(NC(=O)CN(c2ccc(C(C)C)cc2)S(=O)(=O)c2c(C)noc2C)cc1OC = y
CCc1c(C(=O)N2CCOCC2)csc1C = n

====

Listed below: NADPH fluorescence slope values for each entry.
Molecular target: Voltage-gated potassium channel subunit beta-2 (Rattus norvegicus)
Assay: enhancers of rat Kvbeta2 NADPH turnover – biochemical, NADPH fluorescence, primary screen (AID 623);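 note: fluorescence intensity change per second fitted from 20 to 320 s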
Settings: Recombinant KvBeta, NADPH fluorescence decrease slope, 10 min; at 10 µM; active compounds read low
Readout label: NADPH fluorescence slope

COC(=O)c1ccc2c(=O)n(CC3CCCO3)c(=S)[nH]c2c1 (stereo not given) = -2.8e-05
COc1ccc(CCNC(=O)c2ccncc2)cc1OC = -4.1e-05
O=C(CN(Cc1ccc2c(c1)OCO2)C(=O)CNS(=O)(=O)c1ccccc1)NCc1ccco1 = 8e-07
COc1ccc(N2CCN(Cc3cc(=O)oc4cc(C)c(Cl)c(C)c34)CC2)cc1 = 1.5e-05
O=C(CN1CCOCC1)N1CCCc2c1c(=O)oc1ccc(OCc3ccccc3)cc21 = -4.6e-05
CCOC(=O)N1CCN(C(=O)c2ccc3nc4ccsc4c(=O)n3c2)CC1 = -1.8e-05
CCOC(=O)c1ccc(N(CC(=O)NC2CCCC2)C(=O)CNC(=O)c2ccco2)cc1 = -5.1e-05
CCn1c(Cc2ccccc2)nnc1SCC(=O)Nc1cc(C)on1 = -3.3e-05
O=C(NCC1CCCO1)C1CCN(S(=O)(=O)c2cccc3cccnc23)CC1 (stereo not given) = 1.4e-05
CCCCSc1nc2c(cnn2-c2ccc(F)cc2)c(=O)[nH]1 = -3.7e-05
CN(c1ccccc1)S(=O)(=O)c1ccc(C(=O)OCC(=O)N2CCOCC2)cc1 = -6.4e-05
Cc1ccc(-n2nc(C)c3cc(C(=O)O)sc32)cc1 = -5e-05
CN(C)c1nc(N)nc(-c2nc3ccccc3s2)n1 = -2.4e-05
C/C=C(\C)c1nnc(NC(=O)OCC)s1 = -5.8e-05
Cc1cc(C)c(NC(=O)Cn2cc3c(n2)CCCC3)c(C)c1 = -2e-05
CN(C)S(=O)(=O)c1ccc2c(c1)c(=O)c(C(=O)NCCCN1CCCCCC1)cn2C = -3.3e-05
CCn1c(=S)ccc2ccc(OC)cc21 = -9.6e-06
COc1ccccc1Cn1c(-c2ccco2)nc2nc3ccccc3nc21 = -7.7e-06
COc1cccc2cc(C(=O)OC3CCN(C)CC3)c(=O)oc12 = -2.6e-06
COc1nc(NCCc2ccc(OC)c(OC)c2)nc(NC(C)(C)CO)n1 = -1.3e-06
CN1CCN(C(=O)c2ccc(CS(=O)(=O)c3c(Cl)cccc3Cl)o2)CC1 = -2.9e-05
N#CC1=C(N)Oc2c(ccc3cccnc23)C1c1cccnc1 (stereo not given) = -2e-05
COc1ccc(S(=O)(=O)N2CCN(CC(=O)Nc3ccc(F)c(F)c3)CC2)cc1 = -2.7e-05
O=C(NCC1CCCO1)c1cccc(N2CCCC2=O)c1 (stereo not given) = 2.3e-06
Cc1cccc(-c2cc3nc4c(c(N5CCC6(CC5)OCCO6)n3n2)CCCC4)c1 = 4.7e-05
COc1cccc(-c2cc(C(F)(F)F)nc(NCc3ccco3)n2)c1 = -5.6e-06
COC(=O)C(CC(C)C)NC(=O)CSc1nc(-c2ccccc2)c(C#N)c(=O)[nH]1 (stereo not given) = -0.000101
O=c1[nH]c(=O)n(C2CCCCCC2)c(O)c1C=NCc1ccc(F)cc1 = 3.1e-05
Cn1ccnc1SCC(=O)Nc1ccc2ccccc2c1 = -4.1e-05
CC(C)CC(c1nnnn1CC1CCCO1)N1CCN(Cc2ccc3c(c2)OCO3)CC1 (stereo not given) = -3.8e-05
CCc1ccc(NC(=O)CSc2nnc(Cc3cccn3C)n2-c2ccc(OC)cc2)cc1 = 1.4e-05
CCCCn1c(=O)[nH]c(=O)c2c1nc(-c1ccncc1)n2CCOC = -4.3e-05
Cc1nc(SCCC(=O)O)c2ccccc2n1 = -2.6e-06
O=C(NCC1CCCO1)C1CCN(c2ccc(S(=O)(=O)N3CCCC3)cc2)CC1 (stereo not given) = -3.3e-05
O=C1C2ON(c3ccc(Cl)cc3)C(c3ccco3)C2C(=O)N1c1ccccc1 (stereo not given) = -2.4e-05
O=C(c1ccc(Br)o1)N(c1ccc(Br)cc1)C1C=CS(=O)(=O)C1 (stereo not given) = 3.2e-05
CC1(C)CC(=O)c2cnc(NC(=O)CCc3ccccc3)nc2C1 = 9.1e-06
Cn1c(SCc2nc3ccccc3c(=O)[nH]2)nnc1-c1ccco1 = -6.5e-06
CC(C)CCNC(=O)C1CCN(C(=O)N(C)C)CC1 = -4.6e-05
COc1cc(CN2CCN(C(=O)CC(C)C)CC2)cc(OC)c1O = -2.8e-05
C=CCN(CC=C)C(=O)c1ccncc1 = 1.1e-05
CCOC(=O)CSc1nnc([C@H](C)NC(=O)OC(C)(C)C)o1 = -3.4e-05
Cc1c(-n2c(CN3C(=O)c4ccccc4C3=O)nc3ccccc3c2=O)c(=O)n(-c2ccccc2)n1C = 1.1e-05
Cc1nc2ncnn2c(N2CCC(C(=O)NC3CCCC3)CC2)c1Cc1ccccc1 = -0.000271
COc1ccc(C(=O)Nc2nc(C)c(C(=O)N(C)C)s2)cc1OC = 2.3e-06
